Taken from PubChem BioAssay (NCI).

- Test system: LOX IMVI melanoma
- Protocol details: NCI-60 one-dose screen, 48 h
- Condition parameters: 10 µM unless noted
Compounds without any hit were thinned out: in the full panel of roughly 83,000, 20% have a hit. Activity calls are given as the source filed them. Rule for the calls: active = growth percent below 10; inactive = the rest.
Your answer must be one of the following: yes = active, no = inactive

Prompt: For this molecule, state the assay outcome: O=C(NNC(=O)N1c2ccccc2C=Cc2ccccc21)c1ccccc1
Completion: no

Prompt: For this molecule, state the assay outcome: COc1ccc(-c2c(N)n[nH]c2-c2cc3c(c(OC)c2OC)OCO3)cc1
Completion: no

Prompt: For this molecule, state the assay outcome: CCCCCCCCCCCCCCCCNC(=O)OC(C)C
Completion: yes

Prompt: For this molecule, state the assay outcome: Clc1ccc2c(NC3CCC(NC4CCCCC4)CC3)ccnc2c1 (stereo unspecified)
Completion: no

Prompt: For this molecule, state the assay outcome: COc1ccccc1CNCCCN1C(=O)c2ccc3c4c(ccc(c24)C1=O)C(=O)N(CCCNCCCCNCCCN)C3=O
Completion: yes

Prompt: For this molecule, state the assay outcome: CC(C)(C)Nc1c(-c2cccs2)nc2ncccn12
Completion: no

Prompt: For this molecule, state the assay outcome: Clc1cccc(-c2cc(-c3ccc4c(c3)OCCO4)[nH]n2)c1
Completion: no

Prompt: For this molecule, state the assay outcome: Cc1ccc(S(=O)(=O)NCCCNc2cc(-c3cn(C(C)(C)C)nc3-c3cccc(O)c3)ccn2)cc1
Completion: no

Prompt: For this molecule, state the assay outcome: FC(F)(F)c1cccc(-c2cn3c(ccc4ccccc43)n2)c1
Completion: no

Prompt: For this molecule, state the assay outcome: CC(=O)Nc1nc(N)nc(NC(C)=O)c1N=O
Completion: no

Prompt: For this molecule, state the assay outcome: COc1ccc(C2C(C#N)=C(N)Oc3c2ccc2ccccc32)cc1 (stereo unspecified)
Completion: no
